The measured values listed here are drawn from the supplement of paper PMC10307832.

- Tested on: NCI-H1993
- EXPERIMENT NOTES: relative viability (nuclei count vs DMSO), 5 days (fraction); higher = more cells survive
- CONDITION DESCRIPTION: first compound 0.01 µM
VALUE KIND: relative viability
Note: the reply should be a number with no unit written.

Asked: Item O=c1cc(N2CCOCC2)oc2c(-c3cccc4c3sc3ccccc34)cccc12 + Cc1nc(Nc2ncc(C(=O)Nc3c(C)cccc3Cl)s2)cc(N2CCN(CCO)CC2)n1 [Dasatinib] (partner 0.075 µM) has what recorded relative viability?
Given back: 0.603

Asked: Item O=c1cc(N2CCOCC2)oc2c(-c3cccc4c3sc3ccccc34)cccc12 + C[C@]1(O)C[C@@H](c2nc(-c3ccc4ccc(-c5ccccc5)nc4c3)c3c(N)nccn32)C1 [Linsitinib] (partner 1 µM) has what recorded relative viability?
Given back: 0.73

Asked: Item CCN(CC)CCCCNc1ncc2cc(-c3cc(OC)cc(OC)c3)c(NC(=O)NC(C)(C)C)nc2n1 + CS(=O)(=O)CCNCc1ccc(-c2ccc3ncnc(Nc4ccc(OCc5cccc(F)c5)c(Cl)c4)c3c2)o1 [Lapatinib] (partner 2 µM) has what recorded relative viability?
Given back: 0.85

Asked: Item O=c1cc(N2CCOCC2)oc2c(-c3cccc4c3sc3ccccc34)cccc12 + O=C(c1cc(Cc2n[nH]c(=O)c3ccccc23)ccc1F)N1CCN(C(=O)C2CC2)CC1 [Olaparib] (partner 8 µM) has what recorded relative viability?
Given back: 1.08

Asked: Item O=c1cc(N2CCOCC2)oc2c(-c3cccc4c3sc3ccccc34)cccc12 + Nc1ncn([C@H]2C[C@H](O)[C@@H](CO)O2)c(=O)n1 [Decitabine] (partner 2 µM) has what recorded relative viability?
Given back: 0.731

Asked: Item O=c1cc(N2CCOCC2)oc2c(-c3cccc4c3sc3ccccc34)cccc12 + Cc1nc(NC(=O)N2CCC[C@H]2C(N)=O)sc1-c1ccnc(C(C)(C)C(F)(F)F)c1 [Alpelisib] (partner 2 µM) has what recorded relative viability?
Given back: 0.658

Asked: Item CCN(CC)CCCCNc1ncc2cc(-c3cc(OC)cc(OC)c3)c(NC(=O)NC(C)(C)C)nc2n1 + O=C(c1cc(Cc2n[nH]c(=O)c3ccccc23)ccc1F)N1CCN(C(=O)C2CC2)CC1 [Olaparib] (partner 8 µM) has what recorded relative viability?
Given back: 1.01

Asked: Item CCN(CC)CCCCNc1ncc2cc(-c3cc(OC)cc(OC)c3)c(NC(=O)NC(C)(C)C)nc2n1 + NC(=O)Nc1cc(-c2cccc(F)c2)sc1C(=O)N[C@H]1CCCNC1 [AZD7762] (partner 0.2 µM) has what recorded relative viability?
Given back: 0.896

Asked: Item CCN(CC)CCCCNc1ncc2cc(-c3cc(OC)cc(OC)c3)c(NC(=O)NC(C)(C)C)nc2n1 + C[C@]1(O)C[C@@H](c2nc(-c3ccc4ccc(-c5ccccc5)nc4c3)c3c(N)nccn32)C1 [Linsitinib] (partner 1 µM) has what recorded relative viability?
Given back: 0.763

Asked: Item CCN(CC)CCCCNc1ncc2cc(-c3cc(OC)cc(OC)c3)c(NC(=O)NC(C)(C)C)nc2n1 + C[C@@H](Oc1cc(-c2cnn(C3CCNCC3)c2)cnc1N)c1c(Cl)ccc(F)c1Cl [Crizotinib] (partner 1 µM) has what recorded relative viability?
Given back: 0.875

Asked: Item O=c1cc(N2CCOCC2)oc2c(-c3cccc4c3sc3ccccc34)cccc12 + CCNC(=O)c1noc(-c2cc(C(C)C)c(O)cc2O)c1-c1ccc(CN2CCOCC2)cc1 [Luminespib] (partner 0.01 µM) has what recorded relative viability?
Given back: 0.585

Asked: Item CCN(CC)CCCCNc1ncc2cc(-c3cc(OC)cc(OC)c3)c(NC(=O)NC(C)(C)C)nc2n1 + CC1(C)CCC(c2ccc(Cl)cc2)=C(CN2CCN(c3ccc(C(=O)NS(=O)(=O)c4ccc(N[C@H](CCN5CCOCC5)CSc5ccccc5)c(S(=O)(=O)C(F)(F)F)c4)cc3)CC2)C1 [Navitoclax] (partner 0.5 µM) has what recorded relative viability?
Given back: 0.904

Asked: Item CCN(CC)CCCCNc1ncc2cc(-c3cc(OC)cc(OC)c3)c(NC(=O)NC(C)(C)C)nc2n1 + CC(=O)c1c(C)c2cnc(Nc3ccc(N4CCNCC4)cn3)nc2n(C2CCCC2)c1=O [Palbociclib] (partner 0.5 µM) has what recorded relative viability?
Given back: 0.368

Asked: Item CCN(CC)CCCCNc1ncc2cc(-c3cc(OC)cc(OC)c3)c(NC(=O)NC(C)(C)C)nc2n1 + Nc1ncn([C@H]2C[C@H](O)[C@@H](CO)O2)c(=O)n1 [Decitabine] (partner 2 µM) has what recorded relative viability?
Given back: 0.671

* * *

- Test system: SW 1573
- EXPERIMENT NOTES: relative viability (nuclei count vs DMSO), 5 days (fraction); higher = more cells survive
- CONDITION DESCRIPTION: first compound 0.1 µM
Label scheme, based on relative viability: low interval = under 0.5, middle interval = from 0.5 up to 0.8, high interval = 0.8 and over

Asked: Hi there! Could you help me figure out the category for CCN(CC)CCCCNc1ncc2cc(-c3cc(OC)cc(OC)c3)c(NC(=O)NC(C)(C)C)nc2n1 + Cc1nc(NC(=O)N2CCC[C@H]2C(N)=O)sc1-c1ccnc(C(C)(C)C(F)(F)F)c1 [Alpelisib] (partner 2 µM) please?
Given back: high interval

Asked: Hi there! Could you help me figure out the category for O=c1cc(N2CCOCC2)oc2c(-c3cccc4c3sc3ccccc34)cccc12 + Nc1ncn([C@H]2C[C@H](O)[C@@H](CO)O2)c(=O)n1 [Decitabine] (partner 2 µM) please?
Given back: middle interval

Asked: Hi there! Could you help me figure out the category for CCN(CC)CCCCNc1ncc2cc(-c3cc(OC)cc(OC)c3)c(NC(=O)NC(C)(C)C)nc2n1 + N=C(N)NC(=N)NCCc1ccccc1 [Phenformin] (partner 250 µM) please?
Given back: low interval

Asked: Hi there! Could you help me figure out the category for O=c1cc(N2CCOCC2)oc2c(-c3cccc4c3sc3ccccc34)cccc12 + CC(=O)c1c(C)c2cnc(Nc3ccc(N4CCNCC4)cn3)nc2n(C2CCCC2)c1=O [Palbociclib] (partner 0.5 µM) please?
Given back: low interval

Asked: Hi there! Could you help me figure out the category for O=c1cc(N2CCOCC2)oc2c(-c3cccc4c3sc3ccccc34)cccc12 + CCNC(=O)c1noc(-c2cc(C(C)C)c(O)cc2O)c1-c1ccc(CN2CCOCC2)cc1 [Luminespib] (partner 0.01 µM) please?
Given back: low interval

Asked: Hi there! Could you help me figure out the category for CCN(CC)CCCCNc1ncc2cc(-c3cc(OC)cc(OC)c3)c(NC(=O)NC(C)(C)C)nc2n1 + CC(C)C[C@H](NC(=O)[C@H](Cc1ccccc1)NC(=O)c1cnccn1)B(O)O [Bortezomib] (partner 0.002 µM) please?
Given back: high interval

Asked: Hi there! Could you help me figure out the category for O=c1cc(N2CCOCC2)oc2c(-c3cccc4c3sc3ccccc34)cccc12 + COc1cc2c(Oc3ccc(NC(=O)C4(C(=O)Nc5ccc(F)cc5)CC4)cc3F)ccnc2cc1OCCCN1CCOCC1 [Foretinib] (partner 0.25 µM) please?
Given back: high interval

Asked: Hi there! Could you help me figure out the category for CCN(CC)CCCCNc1ncc2cc(-c3cc(OC)cc(OC)c3)c(NC(=O)NC(C)(C)C)nc2n1 + CC(=O)Nc1cccc(-n2c(=O)n(C3CC3)c(=O)c3c(Nc4ccc(I)cc4F)n(C)c(=O)c(C)c32)c1 [Trametinib] (partner 0.02 µM) please?
Given back: middle interval

* * *

- Tested on: NCI-H1734
- EXPERIMENT NOTES: relative viability (nuclei count vs DMSO), 5 days (fraction); higher = more cells survive
- CONDITION DESCRIPTION: first compound 8 µM
Assign relative viability to each entry below.
Note: the reply should be a number with no unit written.

Asked: Item O=c1cc(-c2cccc3c2Sc2ccccc2S3)oc(N2CCOCC2)c1 + COc1cc2c(Oc3ccc(NC(=O)C4(C(=O)Nc5ccc(F)cc5)CC4)cc3F)ccnc2cc1OCCCN1CCOCC1 [Foretinib] (partner 0.25 µM) has what recorded relative viability?
Given back: 0.94

Asked: Item O=c1cc(-c2cccc3c2Sc2ccccc2S3)oc(N2CCOCC2)c1 + Nc1nc2[nH]cc(CCc3ccc(C(=O)N[C@@H](CCC(=O)O)C(=O)O)cc3)c2c(=O)[nH]1 [Pemetrexed] (partner 0.2 µM) has what recorded relative viability?
Given back: 0.432

Asked: Item O=c1cc(-c2cccc3c2Sc2ccccc2S3)oc(N2CCOCC2)c1 + CC(C)C[C@H](NC(=O)[C@H](Cc1ccccc1)NC(=O)c1cnccn1)B(O)O [Bortezomib] (partner 0.002 µM) has what recorded relative viability?
Given back: 1.18

Asked: Item O=c1cc(-c2cccc3c2Sc2ccccc2S3)oc(N2CCOCC2)c1 + O=C(CCCCCCC(=O)Nc1ccccc1)NO [Vorinostat] (partner 1 µM) has what recorded relative viability?
Given back: 0.993
